Items are presented alongside their recorded relative viability.
tested on: 201T; assay: relative viability (nuclei count vs DMSO), 5 days (fraction); higher = more cells survive; settings: first compound 0.04 µM
# output: bare number, no unit

Worked cases, answers included:
INSERT INTO assay_data (compound, readout_value) VALUES
  ('COc1cc(N2CCC(C(N)=O)CC2)ccc1Nc1nc(N)c(Cl)c(Nc2ccccc2S(=O)(=O)C(C)C)n1 [HG-5-88-01] + CC(C)C[C@H](NC(=O)[C@H](Cc1ccccc1)NC(=O)c1cnccn1)B(O)O [Bortezomib] (partner 0.002 µM)', 1.12),
  ('C[C@@H]1CN(CC(=O)Nc2ccc3c(c2)Cc2cccc(-c4cc(=O)cc(N5CCOCC5)o4)c2S3)C[C@H](C)O1 + COc1cc2c(Oc3ccc(NC(=O)C4(C(=O)Nc5ccc(F)cc5)CC4)cc3F)ccnc2cc1OCCCN1CCOCC1 [Foretinib] (partner 0.25 µM)', 0.93),
  ('Clc1ccc(Nc2nnc(Cc3ccncc3)c3ccccc23)cc1 [Vatalanib] + COc1cccc2cc(-c3nc([C@H]4CC[C@H](C(=O)O)CC4)n4ncnc(N)c34)[nH]c12 [OSI-027] (partner 0.5 µM)', 0.759),
  ('COc1cc(N2CCC(C(N)=O)CC2)ccc1Nc1nc(N)c(Cl)c(Nc2ccccc2S(=O)(=O)C(C)C)n1 [HG-5-88-01] + C[C@@H](Oc1cc(-c2cnn(C3CCNCC3)c2)cnc1N)c1c(Cl)ccc(F)c1Cl [Crizotinib] (partner 1 µM)', 1),
  ('COc1cc(N2CCC(C(N)=O)CC2)ccc1Nc1nc(N)c(Cl)c(Nc2ccccc2S(=O)(=O)C(C)C)n1 [HG-5-88-01] + COc1cc2c(Oc3ccc(NC(=O)C4(C(=O)Nc5ccc(F)cc5)CC4)cc3F)ccnc2cc1OCCCN1CCOCC1 [Foretinib] (partner 0.25 µM)', 1.18);

Query: Request: relative viability, test system 201T, entry COc1cc(N2CCC(C(N)=O)CC2)ccc1Nc1nc(N)c(Cl)c(Nc2ccccc2S(=O)(=O)C(C)C)n1 [HG-5-88-01] + COc1cccc2cc(-c3nc([C@H]4CC[C@H](C(=O)O)CC4)n4ncnc(N)c34)[nH]c12 [OSI-027] (partner 0.5 µM)
Response: 0.84

Query: Request: relative viability, test system 201T, entry COc1cc(N2CCC(C(N)=O)CC2)ccc1Nc1nc(N)c(Cl)c(Nc2ccccc2S(=O)(=O)C(C)C)n1 [HG-5-88-01] + CCNC(=O)c1noc(-c2cc(C(C)C)c(O)cc2O)c1-c1ccc(CN2CCOCC2)cc1 [Luminespib] (partner 0.01 µM)
Response: 1.01

Query: Request: relative viability, test system 201T, entry Clc1ccc(Nc2nnc(Cc3ccncc3)c3ccccc23)cc1 [Vatalanib] + O=C(c1cc(Cc2n[nH]c(=O)c3ccccc23)ccc1F)N1CCN(C(=O)C2CC2)CC1 [Olaparib] (partner 8 µM)
Response: 0.833

These data points were gathered from the supplement of paper PMC10307832.
